# TGI per record follows
# Tested on: HT29 colon
# TEST: NCI tumour cell line growth inhibition, 48 h

COMPOUND	TGI
O=c1c2cnccc2cc2c3ccccc3ccn12	> 100 µM
N#CC(C#N)=Cc1ccc(CP(=O)(O)O)cc1	> 100 µM
COC(=O)C(Cc1ccc(N(C)C)cc1)(NC(=O)c1ccccc1)P(=O)(OC)OC (configuration not stated)	> 100 µM

Query :: # input compound: `CC(=O)O[C@H]1C[C@@H](OC(C)=O)[C@@](C)(O)[C@@H]2[C@@H](OC(C)=O)[C@@]3(O)[C@H](/C=C(/CO)[C@H]4O[C@H]4[C@@H](OC(C)=O)[C@@]12C)OC(=O)[C@@H]3C` ; wanted: its TGI
Result :: > 25 µM

Query :: GET /values?readout=TGI&item= `CCCOP(=O)(OCCC)OC(C(F)(F)F)C(F)(F)F`
Result :: > 100 µM

Query :: Entry `COC(=O)c1ccccc1/C=C1\Cc2ccc3c(c2C1=O)CCCC3` : reported TGI = ?
Result :: > 100 µM

Query :: # query: TGI of entry `O=C1C=Cc2c1ccc1ccccc21`
Result :: > 100 µM

Query :: Need TGI, item `Cn1c2ccccc2c2cc(N3CCCC3)c3c(c21)C(=O)N(c1ccccc1)C3=O`
Result :: > 100 µM

* * *

# System: EKVX NSCLC
# TEST: NCI tumour cell line growth inhibition, 48 h; in the data active means GI50 below about 0.43 µM; inactive means the rest
Select the matching outcome among YES for active, NO for inactive

Past entries and their recorded results:
MOLECULE	TARGET_OF_ASSAY	GROUP
CC(C)c1cccc(O)c(=O)c1	EKVX NSCLC	NO
C=C1C(=O)O[C@H]2[C@H]1CC/C(Cn1cc(-c3ccc(F)cc3)nn1)=C\CC[C@@]1(C)O[C@@H]21	EKVX NSCLC	NO
Cn1c(-c2ccccc2)c(/C=C/C2=[N+](C)c3ccccc3C2(C)C)c2ccccc21	EKVX NSCLC	YES
C[C@H]1CNC(=O)c2cnn3ccc(nc23)N[C@H](C)c2cc(F)ccc2O1	EKVX NSCLC	NO

Query :: Each molecule tested received a call. Report the one for `COc1cc(C(=O)O[C@H](C(=O)NCCN(C)CCNC(=O)[C@@H](OC(=O)c2cc(OC)cc3c(C)cccc23)[C@]2(C)CO2)[C@]2(C)CO2)c2cccc(C)c2c1` .
Result :: YES

Query :: # lookup: test call for CCC1(OC(=O)CN)C(=O)OCc2c1cc1n(c2=O)Cc2cc3ccccc3nc2-1 (configuration not stated)
Result :: YES

Query :: What did the test return for `C=C1C(=O)O[C@H]2[C@H]1CC/C(COC(=O)OC/C1=C/CC[C@@]3(C)O[C@H]3[C@H]3OC(=O)[C@@H](CN(C)C)[C@@H]3CC1)=C\CC[C@@]1(C)O[C@@H]21` ?
Result :: NO

* * *

# System: SF-539 CNS
# TEST: NCI tumour cell line growth inhibition, 48 h; in the data active = GI50 below about 0.43 µM; inactive = the rest
Outcomes you can answer with include only these: active, inactive

Example cases with answers are listed next.
COMPOUND	TARGET_OF_ASSAY	GROUP
O=CN1N=C(c2cccc(Nc3ccnc4cc(Cl)ccc34)c2)CC1c1ccccc1 (stereo not drawn)	SF-539 CNS	active
O=C(/C=C1\C(=O)N(Cc2ccccc2)c2ccccc21)c1ccc(OCCN2CCCCC2)cc1	SF-539 CNS	inactive
CN(C)CCCC1(c2ccc(F)cc2)OCc2cc(-c3cc4ccccc4s3)ccc21 (stereo not drawn)	SF-539 CNS	inactive
C=C1C(=O)O[C@H]2[C@H]1CC/C(COC(=O)OC/C1=C/CC[C@@]3(C)O[C@H]3[C@H]3OC(=O)[C@@H](CN(C)C)[C@@H]3CC1)=C\CC[C@@]1(C)O[C@@H]21	SF-539 CNS	inactive
O=c1oc2cc(OC/C(=N/O)c3ccc(F)cc3)ccc2c2ccccc12	SF-539 CNS	inactive

Query :: Which result was noted for this compound in the test: `C=C1SC(=Nc2ccccc2Cl)N(C(=O)c2sc3ccccc3c2Cl)C12CCCCC2`
Result :: inactive

Query :: Just curious, what result did `COc1ccc(/C(C#N)=C/c2cc(OC)c(OC)c(OC)c2)cc1` get here?
Result :: inactive

Query :: // param item: `COc1cc(C(=O)O[C@H](C(=O)NCCN(C)CCNC(=O)[C@@H](OC(=O)c2cc(OC)cc3c(C)cccc23)[C@]2(C)CO2)[C@]2(C)CO2)c2cccc(C)c2c1` ; yields the recorded call
Result :: active

* * *

# System: UACC-62 melanoma
# TEST: NCI tumour cell line growth inhibition, 48 h; in the data active means GI50 below about 0.43 µM; inactive means the rest
Please state which outcome applies, choosing from Yes for active, No for inactive

Query :: What did this assay record as the result for `CC(C)C(=O)c1c(C(F)(F)F)n([O-])c2cc(F)c(F)cc2[n+]1=O` ?
Result :: No

Query :: Just curious, what result did `CCCCCC[C@@H](C)NC(=O)c1ccc(Nc2nc3ccccc3c3occc23)cc1` get here?
Result :: No

* * *

# System: U251 CNS
# TEST: NCI tumour cell line growth inhibition, 48 h
Quick reference for TGI among some compounds

Guide cases for TGI, answers given:
COMPOUND	TGI
COc1ccc(-c2ncn(C[Si](C)(C)C)c2-c2ccc(OC)cc2)cc1	20.7 µM
COc1c(Br)cc2ccccc2c1-c1c(OC)c(Br)cc2ccccc12	> 100 µM
CCCCCCCCCCCCCCCCCCNC(=S)/N=C/c1c(O)c2ccccc2[nH]c1=O	40.5 µM

Query :: Tell me reported TGI for `O=C(O)/C(=C\c1ccc(O)cc1)c1cccc2ccccc12` , tested with U251 CNS.
Result :: > 100 µM

* * *

# Tested on: TK-10 renal
# TEST: NCI tumour cell line growth inhibition, 48 h
READOUT: TGI (µM)
Write the value in µM as a bare number.

Field: example entries. Status: answers known.
SMILES_ENTRY	U	TGI
CCCCCCCCCCCCCCCCCCNC(=S)/N=C/c1c(O)c2ccccc2[nH]c1=O	µM	56.1
O=C(c1ccco1)c1c(C(F)(F)F)n([O-])c2cc(C(F)(F)F)ccc2[n+]1=O	µM	3.1

Next:
Query :: Please provide the recorded TGI for `Cc1c(Cl)cccc1N=NC(=O)NNc1cccc(Cl)c1C` , tested on TK-10 renal.
Result :: 29.6

* * *

# Test system: HS 578T breast
# TEST: NCI tumour cell line growth inhibition, 48 h
READOUT: TGI

Worked examples follow.
SMILES_ENTRY	TGI
O=C(CI)Nc1ccc(O)c2ccccc12	8.49 µM
CCCOP(=O)(OCCC)OC(C(F)(F)F)C(F)(F)F	> 100 µM
CC(C)C(=O)/C=C/S/C=C/C(=O)C(C)C	95.7 µM
CCCCCC[C@@H](C)NC(=O)c1ccc(Nc2nc3ccccc3c3occc23)cc1	> 100 µM
O=C(C#Cc1ccccc1)C1=Cc2ccccc2OC1	23.8 µM

Query :: Item `C=C(C)[C@H]1C2=CC(C)=C(O2)[C@@H](O)[C@H](C(=C)C)CCC2=C[C@H]1OC2=O` has what recorded TGI?
Result :: > 100 µM

Query :: What TGI value was documented for this compound, `CO/N=C(\C([O-])=N\[n+]1cnn(CC(=O)OC(C)(C)C)c1)c1csc(NC(c2ccccc2)(c2ccccc2)c2ccccc2)n1` ?
Result :: > 10 µM

Query :: Need TGI, item `CC1(C)OC(=O)C(C#N)=C1C[n+]1ccccc1`
Result :: > 10 µM

Query :: Please give the measured TGI for this compound: `N#C/C(=N\Nc1ccccc1)C(=O)Nc1cc(-c2ccccc2)nn1-c1ccccc1`
Result :: > 100 µM

Query :: So what does the record say about TGI for `COc1ccc(NC(=O)c2sc3nc(C)c(C(=O)/C=C/c4cccc(OC)c4)cc3c2N)cc1` ?
Result :: > 50 µM

* * *

# Test system: CAKI-1 renal
# TEST: NCI tumour cell line growth inhibition, 48 h
# TGI listing for each entry below
# output: bare number, implied unit nM

See these solved cases before continuing.
MOLECULE	TGI (nM)
COc1ccc2c(c1)NC1(CCN(CCCC(=O)c3ccc(F)cc3)CC1)N=N2	90600
CN(C)CCCC1(c2ccc(F)cc2)OCc2cc(-c3cc4ccccc4s3)ccc21 (centres undefined)	2590

Now, please, on to the next molecule.
Query :: # lookup: TGI of `CC(C)C(=O)c1c(C(F)(F)F)n([O-])c2cc(F)c(F)cc2[n+]1=O`
Result :: 500

* * *

# System: SK-OV-3 ovarian
# TEST: NCI tumour cell line growth inhibition, 48 h
Below, each of the compounds is paired with its reported TGI value.

COMPOUND	TGI
Cc1c(N)nc(C(CC(N)=O)NCC(N)C(N)=O)nc1C(=O)NC(C(=O)NC(C)C(O)C(C)C(=O)NC(C(=O)NCCc1nc(-c2nc(C(=O)NCCCNC(C)c3ccccc3)cs2)cs1)C(C)O)C(OC1OC(CO)C(O)C(O)C1OC1OC(CO)C(O)C(OC(N)=O)C1O)c1cnc[nH]1 (stereo unspecified)	45.6 µM
COC(=O)C1CCC(=O)N1C(c1cc(OC)c(OC)c(OC)c1)c1cccc2ccccc12 (stereo unspecified)	> 100 µM
O[C@@H]1CCC[C@@H]2NC[C@@H](c3ccc4c(c3)OCO4)[C@H]12	> 100 µM
Cc1ccc(S(=O)(=O)N/N=C2\CC3CC4CCC2C4C3)cc1 (stereo unspecified)	> 100 µM
O=C(/C=C1\C(=O)N(Cc2ccccc2)c2ccccc21)c1ccc(OCCN2CCCCC2)cc1	28.2 µM
C#CC1(O)CCC2[C@@H]3CCc4cc(Oc5nc(F)nc(-c6c7ccccc7c(SCC)n6CCC)n5)ccc4C3CC[C@@]21C (stereo partly specified)	> 100 µM
COC(=O)CNC(=O)CCC(C)[C@H]1CCC2C3C(C[C@H](OC(C)=O)[C@@]21C)[C@@]1(C)CCC2(C[C@H]1C[C@H]3OC(C)=O)OOC1(CC[C@]3(C)C4C[C@H](OC(C)=O)[C@@]5(C)C(CC[C@@H]5C(C)CCC(=O)NCC(=O)OC)C4[C@H](OC(C)=O)C[C@@H]3C1)OO2 (stereo partly specified)	13.9 µM
CCCCc1c2cnccc2c(CCCC)c2c1[nH]c1ccccc12	42.2 µM
COC1=CC(=O)C=C(OC)C1=O	40.3 µM
COC(=O)C(Cc1c[nH]c2ccccc12)NP(=O)(O)OCC1OC(n2cc(Br)c(=O)[nH]c2=O)CC1O (stereo unspecified)	> 100 µM

Query :: Fill blank: measured TGI of the compound `O=c1oc2cc(OC/C(=N/O)c3ccc(F)cc3)ccc2c2ccccc12` is ____.
Result :: 41.3 µM

Query :: For CC(C)=CC(=O)N[C@H]1CC[C@]2(C)C3CC[C@]4(C)C(C(C)N(C)C)=CCC4C3CCC2[C@H]1O (stereo partly specified) , what is its reported TGI?
Result :: 24.6 µM

Query :: Which TGI is listed for C/C=C(\C)C(=O)O[C@@H]1CC(C)(C)CC2C3=CCC4[C@]56CC[C@](O)(OC5)C(C)(C)C6CC[C@@]4(C)C3(C)CC[C@]21C(=O)O (stereo partly specified) ?
Result :: > 100 µM
